Target: hP2X7 (Homo sapiens)
Construct: expressed in transfected cells; host or cells: 1321N1 astrocytoma cells
Sequence (Q99572 whole entry): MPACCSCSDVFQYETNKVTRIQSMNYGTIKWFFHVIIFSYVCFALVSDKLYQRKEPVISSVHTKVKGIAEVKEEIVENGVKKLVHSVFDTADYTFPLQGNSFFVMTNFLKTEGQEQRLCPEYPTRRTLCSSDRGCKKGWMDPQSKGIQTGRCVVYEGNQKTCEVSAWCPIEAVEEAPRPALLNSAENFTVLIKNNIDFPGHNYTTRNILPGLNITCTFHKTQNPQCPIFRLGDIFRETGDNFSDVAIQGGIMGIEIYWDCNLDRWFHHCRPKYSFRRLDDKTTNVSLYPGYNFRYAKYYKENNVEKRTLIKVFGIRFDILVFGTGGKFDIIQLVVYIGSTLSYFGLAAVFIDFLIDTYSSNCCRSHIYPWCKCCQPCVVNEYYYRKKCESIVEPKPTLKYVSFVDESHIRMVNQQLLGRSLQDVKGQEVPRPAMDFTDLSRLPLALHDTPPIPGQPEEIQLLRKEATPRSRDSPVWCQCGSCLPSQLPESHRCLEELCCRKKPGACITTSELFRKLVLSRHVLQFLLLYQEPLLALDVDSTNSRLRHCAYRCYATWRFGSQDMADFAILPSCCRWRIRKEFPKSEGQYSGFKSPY
Experiment: P2X7 antagonism: ligand-induced Ca2+ flux in 1321N1 astrocytoma cells overexpressing hP2X7
Type: cell-based
Conditions: pIC50 = -log(IC50), read-out: hP2RX7pIC50 (mean pIC50 values) (converted)
Description: Extracellular binding of ATP to P2X7 that is expressed in the cell-membrane opens the ligand gated cation channel and allows Ca^2+ entry into the cell. This ligand-induced Ca^2+ flux was measured in 1321N1 astrocytoma cells overexpressing hP2X7 for the compounds of the present invention. […] The fluorescence, and thus the changes in intracellular [Ca^2+] in the 1321N1 cells was monitored in time before and after addition of the agonist. […]
Experimental Readout: log10 IC50 (log10 of the value in nM)

> print(dat)
                                    molecule  readout.value
 1  CC(C)N(C)c1ccc2c(C(=O)NCC(c3cnc(C(F)(F)F)nc3)N3CCOCC3)cccc2n1 (centres unmarked)           1.78
 2  CN(C)c1ncc(C(CNC(=O)c2cccc3nc(NCC4CC4)ccc23)N2CCOCC2)cn1 (centres unmarked)           2.23
 3  O=C(NCC(c1cnc(OC2CCC2)nc1)N1CCC(F)(F)CC1)c1cccc2nc(N3CCOCC3)ccc12 (centres unmarked)           1.73
 4  Nc1ncc(C(CNC(=O)c2cccc3nc(NC4CC4)ccc23)N2CCC(F)(F)CC2)cn1 (centres unmarked)           2.25
 5  CN(C)c1ncc(C(CNC(=O)c2cccc3nc(NC4CC4)ccc23)N2CCC(F)(F)CC2)cn1 (centres unmarked)           1.86
 6  CC(C)c1ncc(C(CNC(=O)c2cccc3nc(N4CCOCC4)ccc23)N2CCOCC2)cn1 (centres unmarked)           2.15
 7  CC(=O)N1CCN(c2ncc(C(CNC(=O)c3cccc4nc(NCC5CC5)ccc34)N3CCC(F)(F)CC3)cn2)CC1 (centres unmarked)           1.76
 8  CC(C)N1CCN(c2ccc3c(C(=O)NCC(c4cnc(N5CCNCC5)nc4)N4CCC(F)(F)CC4)cccc3n2)CC1 (centres unmarked)           2.02
 9  O=C(NCC(c1cnc(C(F)(F)F)nc1)N1CCC(F)(F)CC1)c1cccc2nc(O)ccc12 (centres unmarked)           2.35
10  O=C(NCC(c1cnc(C(F)(F)F)nc1)N1CCOCC1)c1cccc2nc(NCC3CCCC3)ccc12 (centres unmarked)           1.85
11  O=C(NCC(c1cnc(C2CCCC2)nc1)N1CCC(F)(F)CC1)c1cccc2nc(NC3CC3)ccc12 (centres unmarked)           1.59
12  CC(C)N1CCN(c2ccc3c(C(=O)NCC(c4cnc(N5CCCC5)nc4)N4CCC(F)(F)CC4)cccc3n2)CC1 (centres unmarked)           2.24
13  O=C(NCC(c1cnc(C(F)(F)F)nc1)N1CCOCC1)c1cccc2nc(N3CCN(C4CC4)CC3)ccc12 (centres unmarked)           1.85
14  O=C(NCC(c1cnc(OCC2CC2)nc1)N1CCC(F)(F)CC1)c1cccc2nc(N3CCOCC3)ccc12 (centres unmarked)           1.51
15  O=C(NCC(c1cnc(C(F)(F)F)nc1)N1CCC(F)(F)CC1)c1cccc2nc(NCC3CCOCC3)ccc12 (centres unmarked)           1.68
16  CC(C)C1CCN(c2ccc3c(C(=O)NCC(c4cnc(C(F)(F)F)nc4)N4CCOCC4)cccc3n2)CC1 (centres unmarked)           2.29
17  O=C(NCC(c1cnc(C(F)(F)F)nc1)N1CCCC(F)(F)C1)c1cccc2ncccc12 (centres unmarked)           1.26
18  O=C(NCC(c1cnc(C(F)(F)F)nc1)N1CCC(F)(F)CC1)c1cccc2ncccc12 (single isomer, unassigned) [Compound 46]           1.44
19  O=C(NCC(c1cnc(C(F)(F)F)nc1)N1CCC(F)(F)CC1)c1cccc2nc(NCCO)ccc12 (centres unmarked)           1.53
20  O=C(NCC(c1cnc(C(F)(F)F)nc1)N1CCCOCC1)c1cccc2nc(NCC3CCOCC3)ccc12 (centres unmarked)           1.91
21  O=C(NCC(c1cnc(C(F)(F)F)nc1)N1CCOCC1)c1cccc2nc(N3CCCCC3)ccc12 (centres unmarked)           1.57
22  O=C(NCC(c1cnc(C(F)(F)F)nc1)N1CCOCC1)c1cccc2nc(NC3CCC3)ccc12 (centres unmarked)           1.73
23  CCCNc1ccc2c(C(=O)NCC(c3cnc(C(F)(F)F)nc3)N3CCOCC3)cccc2n1 (centres unmarked)           1.79
24  Cc1ncc(C(CNC(=O)c2cccc3nc(N4CCCCC4)ccc23)N2CCOCC2)cn1 (centres unmarked)           1.72
25  O=C(NCC(c1cnc(C2CCCC2)nc1)N1CCC(F)(F)CC1)c1cccc2nc(N3CCCC3)ccc12 (centres unmarked)           1.66
26  CC(=O)N1CCN(c2ncc(C(CNC(=O)c3cccc4nc(NC5CC5)ccc34)N3CCC(F)(F)CC3)cn2)CC1 (centres unmarked)           1.81
27  O=C(NC[C@H](c1cnc(C(F)(F)F)nc1)N1CCOCC1)c1cccc2nc(NC3CC3)ccc12 (single isomer, unassigned)           1.82
28  CCc1ncc(C(CNC(=O)c2cccc3nc(NC4CC4)ccc23)N2CCC(F)(F)CC2)cn1 (centres unmarked)           1.83

Origin of the recorded values: patent US8431704B2
